# protocol-summary: Plasma levels by LC-MS/MS after subcutaneous administration
# Type: in vivo, rat
# experimental-parameters: rat, plasma, sc; 100 mg/kg s.c. in saline; read-out: maximum plasma level
Where a SMILES comes first, the peptide text is derived from it.
measured-endpoint: Cmax (ng/mL)
Answers are plain numbers, in ng/mL.

*Q* Quick check: Cmax of C[C@H](NC(=O)[C@@H]1CCCN1C(=O)[C@H](C)NC(=O)[C@@H](N)CCC(=O)O)C(=O)N[C@@H](CCC(=O)O)C(N)=O [AV2157] (H-EAPAE-NH2; N-terminus assumed) ?
*A* 1250

----------
# protocol-summary: Plasma levels by LC-MS/MS after subcutaneous administration
# Assay type: in vivo, rat
# experimental-parameters: rat, plasma, sc; 30 mg/kg s.c.; read-out: maximum plasma levels
Where a SMILES comes first, the peptide text is derived from it.
measured-endpoint: Cmax (ng/mL)
Numbers only, in ng/mL.

*Q* Quick check: Cmax of CC(C)C[C@H](N)C(=O)N[C@@H](C)C(=O)N1CCC[C@H]1C(=O)N[C@@H](C)C(=O)N[C@@H](CCC(=O)O)C(=O)N[C@@H](CC(=O)O)C(N)=O [AV6403, Leu-Ala-Pro-Ala-Glu-Asp-NH2] (H-LAPAED-NH2; N-terminus assumed) ?
*A* 3500
